# System: SKBR3
# test-method-notes: Inhibition of Cancer Cell Growth as Measured by Cell Number (Sulforhodamine B)
# Assay type: cell-based, Human
# details: Homo sapiens, SK-BR-3, 48 hours exposure, read-out: IC50
experimental-readout: IC50 (µg/mL)
Write the value in µg/mL as a bare number.

CN(C)CC=CC(=O)Nc1cc2c(Nc3cccc(Br)c3)c(C#N)cnc2cn1	0.0357
N#Cc1cnc2cnc(NCCN3CCOCC3)cc2c1Nc1cccc(Br)c1	0.4
CN(C)CCOc1cc2c(Nc3ccc(F)c(Cl)c3)c(C#N)cnc2cn1	4.63

Entry "CNc1cc2c(Nc3cccc(Br)c3)c(C#N)cnc2cn1" ; IC50 = 1.88

Per the record, "CN(C)CC=CC(=O)Nc1cnc2ncc(C#N)c(Nc3cccc(Br)c3)c2c1" has IC50 of 4.83

Reported IC50 ( "N#Cc1cnc2cnc(N)cc2c1Nc1cccc(Br)c1" ) = 4.1

In plain terms, "COc1ccc(CNc2cc3c(Nc4cccc(Br)c4)c(C#N)cnc3cn2)cc1" has a documented IC50 of 2.9

Given item "CC#CC(=O)Nc1cc2c(Nc3cccc(Br)c3)c(C#N)cnc2cn1" , the value recorded as its IC50 is 0.12

----------
# System: SW620
# test-method-notes: Inhibition of Cancer Cell Growth as Measured by Cell Number (Sulforhodamine B)
# Type: cell-based, Human
# details: Homo sapiens, SW-620, 48 hours exposure, read-out: IC50
experimental-readout: IC50 (µg/mL)
Give the value in µg/mL but do not write µg/mL after it.

CNc1cc2c(Nc3cccc(Br)c3)c(C#N)cnc2cn1 [Example 64]	4.62

Sure, the documented IC50 for CN(C)CC=CC(=O)Nc1cc2c(Nc3cccc(Br)c3)c(C#N)cnc2cn1 [Example 62] is 0.356

Form field IC50, entry CC#CC(=O)Nc1cc2c(Nc3cccc(Br)c3)c(C#N)cnc2cn1 [Example 61] : 0.17

meta.source: patent EP1171440B1
